Biological target: YSK4/MAP3K19 (Homo sapiens (Human))
Sequence (Q56UN5 whole entry): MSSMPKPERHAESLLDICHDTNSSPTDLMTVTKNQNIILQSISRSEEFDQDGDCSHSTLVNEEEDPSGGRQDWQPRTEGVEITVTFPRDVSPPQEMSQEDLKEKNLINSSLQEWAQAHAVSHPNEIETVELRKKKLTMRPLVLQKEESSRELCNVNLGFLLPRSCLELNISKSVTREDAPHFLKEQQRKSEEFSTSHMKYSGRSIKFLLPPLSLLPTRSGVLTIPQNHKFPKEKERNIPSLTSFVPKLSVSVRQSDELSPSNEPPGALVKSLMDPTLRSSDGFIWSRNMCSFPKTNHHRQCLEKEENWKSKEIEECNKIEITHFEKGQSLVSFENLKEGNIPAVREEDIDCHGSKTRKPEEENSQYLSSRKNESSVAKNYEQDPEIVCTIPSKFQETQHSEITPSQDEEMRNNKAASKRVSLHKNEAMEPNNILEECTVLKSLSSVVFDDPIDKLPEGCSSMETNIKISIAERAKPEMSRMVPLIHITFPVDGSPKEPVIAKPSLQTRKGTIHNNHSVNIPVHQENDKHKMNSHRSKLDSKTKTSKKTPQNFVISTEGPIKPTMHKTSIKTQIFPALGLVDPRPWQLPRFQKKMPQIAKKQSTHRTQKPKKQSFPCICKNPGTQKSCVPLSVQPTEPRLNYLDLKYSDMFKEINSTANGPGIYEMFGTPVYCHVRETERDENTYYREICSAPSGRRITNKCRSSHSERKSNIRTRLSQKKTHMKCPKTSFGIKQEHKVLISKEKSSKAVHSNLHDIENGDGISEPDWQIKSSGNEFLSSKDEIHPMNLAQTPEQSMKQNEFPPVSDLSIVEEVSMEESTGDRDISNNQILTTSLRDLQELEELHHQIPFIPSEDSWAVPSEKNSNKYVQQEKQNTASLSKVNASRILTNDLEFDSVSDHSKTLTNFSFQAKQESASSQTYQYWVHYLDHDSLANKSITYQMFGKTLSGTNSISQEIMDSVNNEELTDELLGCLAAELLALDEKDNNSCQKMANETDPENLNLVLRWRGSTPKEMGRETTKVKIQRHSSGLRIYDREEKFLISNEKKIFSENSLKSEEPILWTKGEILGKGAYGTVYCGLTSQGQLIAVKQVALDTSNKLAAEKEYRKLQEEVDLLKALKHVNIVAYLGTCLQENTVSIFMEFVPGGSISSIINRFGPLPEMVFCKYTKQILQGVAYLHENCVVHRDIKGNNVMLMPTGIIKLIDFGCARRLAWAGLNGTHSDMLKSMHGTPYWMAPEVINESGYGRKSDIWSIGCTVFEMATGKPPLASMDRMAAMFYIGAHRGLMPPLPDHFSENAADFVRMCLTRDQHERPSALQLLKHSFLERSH
Assay: Broad kinase panel screening
From the text: Example 16: Broad Kinase Panel Screening (359) Major hits out of 359 were: ALK, ARK, c-MER, CLK1, DYRK, GSK3a, GSK3b, FLT2, FLT3, MLK1, SIK2, TNIK, and YSK4.
pIC50: −log10 of the molar value.
quantity-kind: pIC50

- compound: "CN(C)CCC1CCN(CCS(=O)(=O)c2ccc(-c3cnc(N)c(C(=O)Nc4ccccc4)n3)cc2)CC1 [Compound 5]"
  quantity-kind: "pIC50"
  recorded-value: 7.53

---

Molecular target: PKD2/PRKD2 (Homo sapiens (Human), UniProt Q9BZL6)
Sequence (Q9BZL6 whole entry): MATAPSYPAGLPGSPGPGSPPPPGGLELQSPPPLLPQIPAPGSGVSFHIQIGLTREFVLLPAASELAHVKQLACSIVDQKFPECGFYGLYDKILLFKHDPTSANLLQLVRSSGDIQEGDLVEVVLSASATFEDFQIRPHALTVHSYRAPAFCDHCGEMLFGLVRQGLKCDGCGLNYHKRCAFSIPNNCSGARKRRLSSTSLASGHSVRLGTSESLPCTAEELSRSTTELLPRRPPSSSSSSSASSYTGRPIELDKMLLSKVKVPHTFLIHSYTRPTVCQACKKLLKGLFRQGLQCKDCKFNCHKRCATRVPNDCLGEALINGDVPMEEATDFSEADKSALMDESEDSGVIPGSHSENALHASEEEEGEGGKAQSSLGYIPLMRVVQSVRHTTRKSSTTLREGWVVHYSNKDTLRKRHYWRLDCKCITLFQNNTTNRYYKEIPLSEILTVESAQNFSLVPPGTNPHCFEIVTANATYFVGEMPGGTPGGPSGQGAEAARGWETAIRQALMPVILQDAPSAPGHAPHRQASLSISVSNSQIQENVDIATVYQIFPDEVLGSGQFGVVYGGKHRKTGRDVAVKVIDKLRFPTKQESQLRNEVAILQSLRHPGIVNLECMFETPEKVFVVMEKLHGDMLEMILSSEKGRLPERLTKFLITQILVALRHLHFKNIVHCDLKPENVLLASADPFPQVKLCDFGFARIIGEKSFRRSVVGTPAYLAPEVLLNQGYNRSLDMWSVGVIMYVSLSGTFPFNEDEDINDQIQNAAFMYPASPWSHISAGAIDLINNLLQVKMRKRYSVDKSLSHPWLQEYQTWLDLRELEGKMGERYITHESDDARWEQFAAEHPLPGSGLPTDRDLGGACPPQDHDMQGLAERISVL
Experiment: Broad kinase panel screening
pIC50: −log10 of the molar value.

- structure-smiles: "CN(C)CCC1CCN(CCS(=O)(=O)c2ccc(-c3cnc(N)c(C(=O)Nc4ccccc4)n3)cc2)CC1"
  study-system: "PKD2/PRKD2 (Homo sapiens (Human), UniProt Q9BZL6)"
  pIC50: 6.80
